Biological target: UniProt Q13547
Sequence (Q13547 whole entry): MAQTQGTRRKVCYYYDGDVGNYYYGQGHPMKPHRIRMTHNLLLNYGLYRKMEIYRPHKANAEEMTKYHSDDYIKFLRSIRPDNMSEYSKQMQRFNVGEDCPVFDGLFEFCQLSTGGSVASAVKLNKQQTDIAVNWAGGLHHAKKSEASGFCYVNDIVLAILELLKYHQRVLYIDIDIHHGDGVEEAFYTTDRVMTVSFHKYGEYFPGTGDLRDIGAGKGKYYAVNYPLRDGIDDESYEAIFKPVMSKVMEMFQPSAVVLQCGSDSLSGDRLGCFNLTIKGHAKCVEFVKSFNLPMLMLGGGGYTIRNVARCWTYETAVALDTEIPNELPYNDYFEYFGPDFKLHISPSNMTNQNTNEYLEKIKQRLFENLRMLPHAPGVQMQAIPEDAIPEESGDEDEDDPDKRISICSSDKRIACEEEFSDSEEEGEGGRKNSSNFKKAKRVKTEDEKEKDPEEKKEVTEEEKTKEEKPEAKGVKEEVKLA
Experiment: In vitro inhibitory activity towards HDAC1 (HDAC Inhibitor Drug Screening Kit)
Format: biochemical
Conditions: compound at 1 μM
readout label: inhibition at 1 µM (%)

| smiles record | recorded value |
| --- | --- |
| CC(=O)c1ccc2[nH]c(C(=O)NCc3ccc(C(=O)Nc4ccccc4N)cc3)cc2c1 | 59.3 |
| Nc1ccccc1NC(=O)c1ccc(CNC(=O)c2cc3ccccc3s2)cc1 | 59.1 |
| Nc1ccccc1NC(=O)c1ccc(CNC(=O)c2cc3ccccc3[nH]2)cc1 | 59.6 |

1. Nc1ccc(-c2cccs2)cc1NC(=O)c1ccc(CNC(=O)c2cc3ccccc3o2)cc1
2. Nc1ccccc1NC(=O)c1ccc(CNC(=O)c2cc3cc(C(F)(F)F)ccc3[nH]2)cc1
Query string: Given 1 and 2 , report the one with the higher recorded inhibition at 1 µM. Your choice should be expressed through its label.
Result string: 1
